experiment: cell viability in Huh7 cells, primary screen, cytotoxicity control for HCV replication inhibitor project, CellTiter-Glo luminescence, basal, 48 h (AID 1143); details: Huh7 HCV replicon, higher = more signal, called active from +8 up or from −8 down;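 note: Huh7 hepatoma cells carrying a hepatitis C replication reporter with no stimulus; test concentration not given here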
Listed compounds paired with reported z-score
Output: the number by itself.

Known z-score results, listed for orientation:
CO[C@@H]1C=CCC(=O)N2CCC[C@H]2C(=O)OC[C@H](C)C(=O)OC[C@H]1C; 0.0002
O=C1[C@H]2[C@H]3[C@H](O)[C@H](O)CC(=NOCc4ccccc4)[C@H]3CC[C@H]2C(=O)N1Cc1ccccc1; -5.42
CC(C)C(=O)N[C@@H]1CCCN1C(=O)C=Cc1ccccc1; 0.135
CC(=O)OC[C@H]1O[C@H](C#CC(C)(C)C)C=C[C@@H]1OC(C)=O; 0.13
COc1ccc(COC(=O)NN=C2C[C@@H](O)[C@@H](O)[C@@H]3[C@@H]4C(=O)N(C(C)(C)C)C(=O)[C@@H]4CC[C@H]23)cc1; -1.47

Could you now consider this next compound?
Exercise: Look at this compound and give its reported z-score. `Cc1ccc(S(=O)(=O)N[C@H]2COC(=O)[C@@H](C)COC(=O)[C@H](C)NC(=O)CC=C[C@H]2C)cc1`
Key: 0.365
